Assayed system: GTPase KRas (Homo sapiens, UniProt P01116, G12D)
Sequence (P01116 whole entry G12D): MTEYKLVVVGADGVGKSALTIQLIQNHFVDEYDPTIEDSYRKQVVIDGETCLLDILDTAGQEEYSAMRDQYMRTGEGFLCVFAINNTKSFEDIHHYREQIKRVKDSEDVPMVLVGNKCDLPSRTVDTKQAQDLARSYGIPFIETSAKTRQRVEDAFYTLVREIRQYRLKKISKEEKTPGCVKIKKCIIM
Measurement protocol: Inhibition of KRAS G12D mutant (unknown origin) preincubated for 15 mins followed by SOS1/EDA-GTP-DY-647P1 addition measured after 30 mins by HTRF assay
pIC50: −log10 of the molar value.
Measured quantity: pIC50

{"columns": ["Structure", "Assayed system", "Result value"],
 "data": [
  ["CCc1cccc2cc(O)cc(-c3ncc4c(N5C[C@H]6CC[C@@H](C5)N6)nc(OC[C@@H]5CCCN5C)nc4c3F)c12", "GTPase KRas (Homo sapiens, UniProt P01116, G12D)", 8.24]
]}
